- ASSAY NOTES: Human liver microsome stability assay
- Assay type: in vitro ADME
- CONDITIONS USED: both sexes, human, microsomes, pH 7.4
MEASUREMENT LABEL: half-life at 0.5 μM (min)

The following compounds have reported results that may help.
Cn1cc(-c2cc(C(=O)NC3CCOC3)ccc2Oc2ccc(F)cc2F)c2cc[nH]c2c1=O (centres unmarked); 6
Cn1cc(-c2cc(CCO)ccc2OCc2ccccc2)c2cc[nH]c2c1=O; 33.7
CCNC(=O)c1cc2c(-c3cc(NS(C)(=O)=O)ccc3Oc3ccccc3)cn(C)c(=O)c2[nH]1; 34
COCCS(=O)(=O)Nc1ccc(Oc2ccc(F)cc2F)c(-c2cn(C)c(=O)c3[nH]ccc23)c1; 33

I. CNS(=O)(=O)Nc1ccc(OC2CCC(F)(F)CC2)c(-c2cn(C)c(=O)c3[nH]ccc23)c1
II. Cn1cc(-c2cc(S(C)(=O)=O)ccc2Oc2ccc(F)cc2F)c2cc(C(=O)Nc3nccs3)[nH]c2c1=O
In the pair I and II , the larger recorded half-life at 0.5 μM belongs to which? The response must carry the label of the picked entry.
I

----------
- STUDY SYSTEM: human BRD4 first bromodomain (BDI_K57-E168) (Homo sapiens (Human), UniProt O60885)
- ASSAY NOTES: TR-FRET bromodomain binding assay, BRD4 first bromodomain
pKi: −log10 of the molar value.
MEASUREMENT LABEL: pKi

Here are 3 molecules together with their reported answers.
Cn1cc(-c2cc(S(C)(=O)=O)ccc2Oc2ccc(Cl)c(F)c2)c2cc[nH]c2c1=O [Example 189]; 7.52
CC(C)S(=O)(=O)c1ccc(NCC2CC2)c(-c2cn(C)c(=O)c3[nH]ccc23)c1 [Example 261]; 8.82
CCS(=O)(=O)Nc1ccc(Oc2ccc(C#N)cc2)c(-c2cn(C)c(=O)c3[nH]ccc23)c1 [Example 90]; 8.40

A. Cn1cc(-c2cc(NS(C)(=O)=O)ccc2Oc2ccccc2)c2cc[nH]c2c1=O [Example 4]
B. Cn1cc(-c2cc(-c3cccc(F)c3)ccc2OCC2CC2)c2cc[nH]c2c1=O [Example 334]
C. Cn1cc(-c2cc(S(C)(=O)=O)ccc2OCC2CC2)c2cc[nH]c2c1=O [Example 158]
D. Cn1cc(-c2cc(S(C)(=O)=O)ccc2Oc2cccc(C(F)(F)F)c2)c2cc[nH]c2c1=O [Example 157]
E. CN1CCC(NC(=O)c2ccc(Oc3ccc(F)cc3F)c(-c3cn(C)c(=O)c4[nH]ccc34)c2)C1=O (centres unmarked) [Example 53]
Highest pKi first, then in falling order down to the smallest. In your reply, arrange the labels in the requested order.
A, C, D, E, B

----------
- STUDY SYSTEM: human BRD4 first bromodomain (BDI_K57-E168) (Homo sapiens (Human), UniProt O60885)
- ASSAY NOTES: TR-FRET bromodomain binding assay, BRD4 first bromodomain
MEASUREMENT LABEL: Ki (nM)

1. Cn1cc(-c2cc(S(C)(=O)=O)ccc2OCC2(F)COC2)c2cc[nH]c2c1=O
2. Cn1cc(-c2ccccc2Cc2ccccc2)c2cc[nH]c2c1=O
3. Cn1cc(-c2cc(NS(C)(=O)=O)ccc2Oc2cccnc2)c2cc[nH]c2c1=O
4. CCOC(=O)c1cc2c(-c3cc(N)ccc3Oc3ccccc3)cn(C)c(=O)c2[nH]1
# sort list by recorded Ki, greatest to least Note for the reader: the ranking is given by listing the labels in the order requested.
2, 4, 1, 3
(2: 5500 nM, 4: 39 nM, 1: 11.6 nM, 3: 1.8 nM)

----------
- ASSAY NOTES: Human liver microsome stability assay
- Format: in vitro ADME
- CONDITIONS USED: both sexes, human, microsomes, pH 7.4
MEASUREMENT LABEL: half-life at 0.5 μM (min)

Consider the following illustrative entries.
Cn1cc(-c2cc(S(C)(=O)=O)ccc2Oc2ccccc2)c2cc[nH]c2c1=O; 43
CN(c1ccc(Oc2ccccc2)c(-c2cn(C)c(=O)c3[nH]ccc23)c1)S(C)(=O)=O; 19

1. CN(C)S(=O)(=O)c1ccc(OCC2CC2)c(-c2cn(C)c(=O)c3[nH]ccc23)c1
2. CCS(=O)(=O)c1ccc(OC2CCC3(CC2)OCCO3)c(-c2cn(C)c(=O)c3[nH]ccc23)c1
3. Cn1cc(-c2cc(S(C)(=O)=O)ccc2Oc2ccccc2Cl)c2cc[nH]c2c1=O
Rank the 3 compounds: largest half-life at 0.5 μM first, smallest last. Hello, could you send the labels back in the order asked? Thank you.
3, 2, 1

----------
- STUDY SYSTEM: human BRD4 second bromodomain (BDII_E352-M457) (Homo sapiens (Human))
- ASSAY NOTES: TR-FRET bromodomain binding assay, BRD4 second bromodomain
MEASUREMENT LABEL: Ki (nM)

I. Cn1cc(-c2cc(S(=O)(=O)c3ccccc3)ccc2OCC2CC2)c2cc[nH]c2c1=O
II. Cn1cc(-c2cc(-c3cccc(C#N)c3)ccc2OCC2CC2)c2cc[nH]c2c1=O
Which value of Ki is numerically greater: that of I or that of II ? State your choice using its label.
II
(II: 256 nM, I: 7.5 nM)

----------
- ASSAY NOTES: Mouse liver microsome stability assay
- Type: in vitro ADME
- CONDITIONS USED: male, CD1, mouse, microsomes, pH 7.4
MEASUREMENT LABEL: half-life at 0.5 μM (min)

# count of solved cases: 2
Cn1cc(-c2ccccc2-c2ccccc2)c2cc[nH]c2c1=O; 3
CCS(=O)(=O)c1ccc(Oc2ccc(C#N)cc2)c(-c2cn(C)c(=O)c3[nH]ccc23)c1; 72

1. Cn1cc(-c2cc(S(=O)(=O)N3CCOCC3)ccc2Oc2ccc(F)cc2F)c2cc[nH]c2c1=O
2. CNS(=O)(=O)c1cnc(NC2CCCCC2)c(-c2cn(C)c(=O)c3[nH]ccc23)c1
3. CCS(=O)(=O)c1ccc(Oc2cccc(CO)c2)c(-c2cn(C)c(=O)c3[nH]ccc23)c1
4. Cc1ccc(Oc2ccc(S(C)(=O)=O)cc2-c2cn(C)c(=O)c3[nH]ccc23)cc1
5. Cn1cc(-c2cc(S(N)(=O)=O)ccc2Oc2ccc(F)cc2F)c2cc[nH]c2c1=O
Rank ascending by half-life at 0.5 μM. Labels, requested order.
1, 4, 2, 5, 3

1. Cn1cc(-c2cc(NS(C)(=O)=O)ccc2Oc2ccccc2)c2cc(C(N)=O)[nH]c2c1=O
2. Cn1cc(-c2cc(C(=O)N3CCCC3)ccc2Oc2ccc(F)cc2F)c2cc[nH]c2c1=O
Quick one: lower half-life at 0.5 μM, 1 or 2 ? Could you answer with the label of the item you picked?
2
(2: 13 min, 1: 31 min)

1. Cn1cc(-c2cc(S(C)(=O)=O)ccc2OC2CCCCCC2)c2cc[nH]c2c1=O
2. Cn1cc(-c2cc(C(=O)N3CCN(C(=O)c4ccco4)CC3)ccc2Oc2ccc(F)cc2F)c2cc[nH]c2c1=O
Sort 1 and 2 by half-life at 0.5 μM descending and give the first. Respond using the label that marks the chosen record.
1
(1: 4 min, 2: 2 min)

a. Cc1ccc(S(=O)(=O)n2ccc3c(-c4cc(NS(C)(=O)=O)ccc4Oc4ccccc4)cn(C)c(=O)c32)cc1
b. Cn1cc(-c2cc(S(C)(=O)=O)ccc2Oc2cccnc2)c2cc[nH]c2c1=O
In terms of reported half-life at 0.5 μM, does a or b have the smaller number? Please respond with the label that marks your chosen entry.
a
(a: 4 min, b: 8 min)

a. Cn1cc(-c2cc(CCO)ccc2OCc2ccccc2)c2cc[nH]c2c1=O
b. CC(C)c1ccc(Oc2ccc(S(C)(=O)=O)cc2-c2cn(C)c(=O)c3[nH]ccc23)cc1
c. CCCS(=O)(=O)Nc1ccc(OC2CCC(F)(F)CC2)c(-c2cn(C)c(=O)c3[nH]ccc23)c1
d. CCS(=O)(=O)Nc1ccc(Oc2ccc(F)cc2F)c(-c2cn(C)c(=O)c3[nH]ncc23)c1
e. Cn1cc(-c2cc(CC#N)ccc2OCC2CC2)c2cc[nH]c2c1=O
# rank_down: sort by half-life at 0.5 μM, max first Use the labels to give the ranking in the order requested.
d, a, e, c, b

A. Cn1cc(-c2cc(NS(=O)(=O)CC(F)(F)F)ccc2Oc2ccccc2)c2cc[nH]c2c1=O
B. CNS(=O)(=O)c1cnc(Oc2ccc(F)cc2F)c(-c2cn(C)c(=O)c3[nH]ccc23)c1
Please compare: A and B . Report which one has the smaller half-life at 0.5 μM value. Label of pick, please.
A
(A: 24 min, B: 56 min)

P. Cn1cc(-c2cc(S(=O)(=O)N3CCCC3)ccc2OCC2CC2)c2cc[nH]c2c1=O
Q. Cn1cc(-c2cc(C3=CCN(C(=O)OC(C)(C)C)CC3)ccc2OCC2CC2)c2cc[nH]c2c1=O
R. Cn1cc(-c2cc(C(=O)Nc3nccs3)ccc2Oc2ccccc2)c2cc[nH]c2c1=O
S. Cc1ncccc1Oc1ccc(S(C)(=O)=O)cc1-c1cn(C)c(=O)c2[nH]ccc12
T. Cn1cc(-c2cc(S(C)(=O)=O)ccc2OCC2(F)COC2)c2cc[nH]c2c1=O
Please produce an ascending ranking of these molecules based on half-life at 0.5 μM. Response format: the labels, sorted as the prompt asks.
P, Q, R, S, T

A. Cn1cc(-c2cc(NS(=O)(=O)CCN3CCOCC3)ccc2Oc2ccc(F)cc2F)c2cc[nH]c2c1=O
B. CC(C)S(=O)(=O)c1ccc(Oc2ccc(F)cc2F)c(-c2cn(C)c(=O)c3[nH]ccc23)c1
Between the entries labelled A and B , which has a larger half-life at 0.5 μM value on record? Indicate which entry you chose by stating its label.
B
